Numbers sourced from the CheMixHub drug solubility set.

Assay: xn = mol fraction of the nth substance listed, in the solute-free solvent
Conditions: 303.15 K; x2 = 0.2812
Classification field: Met = solubility (g/100 g solution) at or over 0.4; Not met = solubility (g/100 g solution) under 0.4.

Compound	Label Class
O=C1C=CC(=O)N1c1ccccc1Br + CCO + O	Met
Nc1cc(-c2ccncc2)c[nH]c1=O + CCO + O	Not met
Nc1ncc(Br)nc1Br + CCO + O	Met
CC(C)C(=O)Nc1ccc([N+](=O)[O-])c(C(F)(F)F)c1 + CCO + O	Met
O=c1cc(CBr)c2ccccc2[nH]1 + CCO + O	Not met
